Test system: P. aeruginosa 659
Test: MIC broth microdilution, clinical isolate
Format: cell-based
Settings: Pseudomonas aeruginosa; P. aeruginosa 659, clinical isolate, 19 h at 35 °C; read-out: minimal inhibitory concentration (MIC)
metric_name: MIC (µg/mL)
Reply numerically in µg/mL, unit not repeated.

For orientation, consider the following solved cases.
CC(C)C12C=CC(C)(CC1)C1C(=O)N(Nc3nnnn3-c3ccccc3Br)C(=O)C12 (centres unmarked) [Compound 9]: 16
CC1=C(C)C2(C)CC1(C)C1C(=O)N(Nc3nnnn3-c3ccccc3Br)C(=O)C12 (centres unmarked) [Compound 3]: 1.6
CC1=C(C)C2(C)CC1(C)C1C(=O)N(Nc3nnnn3-c3cccc(C(F)(F)F)c3)C(=O)C12 (centres unmarked) [Compound 1]: 1.6
Cc1ccc(-n2nnnc2NN2C(=O)C3C(C2=O)C2(C(C)C)C=CC3(C)CC2)cc1 (centres unmarked) [Compound 10]: 32
CC1=C(C)C2(C)CC1(C)C1C(=O)N(Nc3nnnn3-c3ccccc3)C(=O)C12 (centres unmarked) [Compound 6]: 16
CC1=C(C)C2(C)CC1(C)C1C(=O)N(Nc3nnnn3-c3ccccc3Cl)C(=O)C12 (centres unmarked) [Compound 2]: 1.6

Turning now to a further molecule:
CC1=C(C)C2(C)CC1(C)C1C(=O)N(Nc3nnnn3-c3ccc([N+](=O)[O-])cc3)C(=O)C12 (centres unmarked) [Compound 4] has a reported MIC of 256
